experimental system: RXFP4 receptor (UniProt Q8TDU9 1-374, limits assumed)
Sequence (Q8TDU9 whole entry): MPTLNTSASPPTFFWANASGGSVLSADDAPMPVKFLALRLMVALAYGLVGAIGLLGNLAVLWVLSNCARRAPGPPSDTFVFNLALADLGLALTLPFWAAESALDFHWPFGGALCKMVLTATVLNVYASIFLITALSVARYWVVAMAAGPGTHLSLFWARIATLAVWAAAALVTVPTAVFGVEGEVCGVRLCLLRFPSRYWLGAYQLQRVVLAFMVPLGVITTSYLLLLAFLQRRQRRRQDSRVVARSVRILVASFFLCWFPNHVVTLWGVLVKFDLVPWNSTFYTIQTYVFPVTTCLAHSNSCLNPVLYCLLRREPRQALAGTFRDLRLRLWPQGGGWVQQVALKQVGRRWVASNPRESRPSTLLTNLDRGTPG
measurement notes: cell-based or functional assay
No end group written: not given here.
measurement kind: pEC50 (M), activation of RXFP4

Can you share its pEC50 (M), activation of RXFP4? I mean this binder: analogue 17 (Synthetic) chain 1: CKWGASKSEISSLC chain 2: GVRLCGREFIRAVIFTCGGSRW 7.85 M (as -log10)

Can you share its pEC50 (M), activation of RXFP4? I mean this binder: analogue 18 (Synthetic) chain 1: CKWGASKSEISSLC chain 2: RLCGREFIRAVIFTCGGSRW 8.1 M (as -log10)

Can you share its pEC50 (M), activation of RXFP4? I mean this binder: native human relaxin-3 (H3 relaxin) (ligand, disulfide (positions not given here); also: one intra-A-chain and two inter-chain disulphide bonds, places not given here, Two-chain peptide; one intra-A-chain and two inter-chain disulphide bonds; also called native relaxin-3) chain 1: DVLAGLSSSCCKWGCSKSEISSLC chain 2: RAAPYGVRLCGREFIRAVIFTCGGSRW 8.94 M (as -log10)
